Reference source: paper PMC11678328

Biological target: human TOP1 (Homo sapiens, UniProt P11387)
Construct: made in house; host or cells: Saccharomyces cerevisiae TOP1 null strain RS190, plasmid pHT143 (GAL promoter)
Sequence (P11387 1-765): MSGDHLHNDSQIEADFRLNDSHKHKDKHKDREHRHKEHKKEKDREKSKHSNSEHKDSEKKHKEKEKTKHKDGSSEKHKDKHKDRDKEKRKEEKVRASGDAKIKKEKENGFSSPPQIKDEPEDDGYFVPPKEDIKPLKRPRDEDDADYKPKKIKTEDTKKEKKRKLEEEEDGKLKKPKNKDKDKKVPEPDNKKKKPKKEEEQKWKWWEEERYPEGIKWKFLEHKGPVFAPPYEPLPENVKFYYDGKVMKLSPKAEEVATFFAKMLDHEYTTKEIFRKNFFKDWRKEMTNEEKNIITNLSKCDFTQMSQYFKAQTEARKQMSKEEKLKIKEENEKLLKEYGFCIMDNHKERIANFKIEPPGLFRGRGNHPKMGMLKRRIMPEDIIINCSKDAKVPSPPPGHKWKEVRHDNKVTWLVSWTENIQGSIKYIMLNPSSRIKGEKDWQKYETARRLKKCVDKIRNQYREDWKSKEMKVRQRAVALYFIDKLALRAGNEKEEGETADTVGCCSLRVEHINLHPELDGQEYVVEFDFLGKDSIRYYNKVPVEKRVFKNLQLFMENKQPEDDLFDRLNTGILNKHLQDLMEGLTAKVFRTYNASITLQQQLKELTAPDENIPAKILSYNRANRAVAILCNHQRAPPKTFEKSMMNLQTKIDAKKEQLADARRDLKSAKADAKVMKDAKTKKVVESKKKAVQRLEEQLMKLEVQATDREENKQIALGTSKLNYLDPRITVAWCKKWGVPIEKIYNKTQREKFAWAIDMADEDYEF
Test: TOP1 supercoiled plasmid DNA relaxation assay
Format: biochemical
Conditions: 30 min reaction; compounds at 100 μM; semiquantitative
readout: TOP1 Inhibition 30 min

> print(dat)
                                   compound                             assayedsystem  testresult
1  O=P(c1ccccc1)(c1ccccc1)c1ccc2c(c1)C1c3ccccc3CC1C(c1ccc(F)cc1)N2 (stereo not shown)  human TOP1 (Homo sapiens, UniProt P11387)          ++
2  O=P(c1ccccc1)(c1ccccc1)c1ccc2c(c1)C1c3ccccc3CC1C(c1ccccc1)N2 (stereo not shown)  human TOP1 (Homo sapiens, UniProt P11387)          ++
3  COc1cccc(-c2nc3ccc(P(=O)(c4ccccc4)c4ccccc4)cc3c3c2Cc2ccccc2-3)c1  human TOP1 (Homo sapiens, UniProt P11387)          ++
